- system: VIM-1 (Pseudomonas aeruginosa, UniProt A0A0F7KYQ8)
- protocol-description: biochemical
- Format: biochemical
pIC50: −log10 of the molar value.
metric: pIC50

O=C(O)c1ccccn1 [Compound 1, pyridine-2-carboxylic acid, reference compound]    < 3.70
O=C(O)c1ncsc1NS(=O)(=O)c1ccccc1    < 3.70
O=C(O)c1ncsc1NS(=O)(=O)Cc1cc(Cl)cc(Cl)c1    4.55
Cc1ccc(C(=O)Nc2cccnc2C(=O)O)cc1Cl    4.02
O=C(O)c1ccc2ccccc2n1    < 3.70
N#Cc1cccc(CS(=O)(=O)Nc2cccnc2C(=O)O)c1    < 3.70
O=C(Cc1cccs1)Nc1cccnc1C(=O)O    3.88
O=C(O)c1ncccc1-c1ccc(F)c(F)c1    < 3.70
O=C(O)c1ncsc1NS(=O)(=O)Cc1ccc(Cl)cc1Cl    5.15
O=C(O)c1cccnn1    < 3.70
Cn1cnc(C(=O)O)c1    < 3.70
